These measurements were taken from patent US11584714B2.

# system.name: mMASP-2 (Mus musculus (Mouse), UniProt Q91WP0)
# Sequence (Q91WP0 20-685): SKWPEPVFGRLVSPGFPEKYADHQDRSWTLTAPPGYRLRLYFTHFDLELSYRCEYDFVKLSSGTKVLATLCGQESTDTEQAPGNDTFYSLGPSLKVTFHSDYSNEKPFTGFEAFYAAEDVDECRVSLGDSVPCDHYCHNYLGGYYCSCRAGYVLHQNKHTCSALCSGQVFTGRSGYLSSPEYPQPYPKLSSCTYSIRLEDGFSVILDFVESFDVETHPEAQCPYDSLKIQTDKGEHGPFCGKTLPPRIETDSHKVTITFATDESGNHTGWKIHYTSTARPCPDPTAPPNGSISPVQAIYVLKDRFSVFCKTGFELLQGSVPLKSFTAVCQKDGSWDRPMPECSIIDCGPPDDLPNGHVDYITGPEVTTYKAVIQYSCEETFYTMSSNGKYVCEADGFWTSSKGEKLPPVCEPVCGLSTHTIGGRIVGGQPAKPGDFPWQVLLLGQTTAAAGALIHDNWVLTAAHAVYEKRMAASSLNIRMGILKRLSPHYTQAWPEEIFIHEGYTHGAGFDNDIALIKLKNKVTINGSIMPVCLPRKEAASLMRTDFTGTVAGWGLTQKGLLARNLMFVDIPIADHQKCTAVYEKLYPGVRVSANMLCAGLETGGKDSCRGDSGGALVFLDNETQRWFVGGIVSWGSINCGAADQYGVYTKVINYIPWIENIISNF
# assay.method.text: Enzymatic inhibition of mMASP-2
# Type: biochemical
# particulars: read-out: mMASP-2 Ki
pKi: −log10 of the molar value. Structures can show the parent of a compound that is named as a salt.
measured.quantity: pKi

Hi! What's the reported pKi for Cc1nc(N)ccc1CNC(=O)[C@H](C)NC(=O)[C@H]1C[C@H](Cc2ccc(Oc3ccccc3)cc2)CN1 [compound 1430, Di-trifluoroacetate salt] on mMASP-2 (Mus musculus (Mouse), UniProt Q91WP0)? > 6.30

So what pKi did Cc1nc(N)ccc1CNC(=O)[C@H](C)NC(=O)[C@H]1Cc2c([nH]c3ccccc23)CN1 [compound 1389, Hydrochloride] get with mMASP-2 (Mus musculus (Mouse), UniProt Q91WP0)? 5.00 to 5.60

I'm curious: which pKi was measured for C[C@H](NC(=O)[C@H]1C[C@H](Cc2ccccc2-c2ccc(Cl)s2)CN1)C(=O)NCc1cc(Cl)ccc1-n1cnnn1 [compound 1409, Trifluoroacetate] tested on mMASP-2 (Mus musculus (Mouse), UniProt Q91WP0)? 5.00 to 5.60

// map CCc1cccc([C@H]2CN[C@@H](C(=O)N[C@@H](C)C(=O)NCc3ccc(C(=N)N)cc3)C2)c1 [compound 1302, Dihydrochloride] to recorded pKi (system: mMASP-2 (Mus musculus (Mouse), UniProt Q91WP0)) > 6.30

# returns recorded pKi (system: mMASP-2 (Mus musculus (Mouse), UniProt Q91WP0)) for Cc1nc(N)ccc1CNC(=O)[C@H](C)NC(=O)[C@H]1C[C@H](Cc2ccc(Cc3ccccc3)cc2)CN1 [compound 1427, di-trifluoroacetate salt] > 6.30

Form entry - test system: mMASP-2 (Mus musculus (Mouse), UniProt Q91WP0); read-out: pKi; molecule: Cc1cc(Cl)cc(CNC(=O)[C@H](C)NC(=O)[C@H]2CN(c3cccc4ccccc34)CCN2)c1O [compound 1317, Hydrochloride] 5.60 to 6.30

// lookup pKi | system=mMASP-2 (Mus musculus (Mouse), UniProt Q91WP0) | key= Cc1nc(N)ccc1CNC(=O)[C@H](C)NC(=O)[C@@H](CCc1ccccc1)NCCc1cccc(O)c1 [compound 1349, Dihydrochloride] 5.00 to 5.60

Record lookup: for mMASP-2 (Mus musculus (Mouse), UniProt Q91WP0), what pKi belongs to CC(C)c1cccc([C@H]2CN[C@@H](C(=O)N[C@@H](C)C(=O)NCc3ccc(C(=N)N)cc3)C2)c1 [compound 1316, Dihydrochloride] ? > 6.30

So what pKi did Cc1cc(C)c(O)c(CNC(=O)[C@H](C)NC(=O)[C@H]2C[C@H](c3ccccc3)CN2)c1 [compound 1383, Hydrochloride] get with mMASP-2 (Mus musculus (Mouse), UniProt Q91WP0)? 5.00 to 5.60

Form: Entry = Cc1cc(C)cc(C[C@@H]2CN[C@@H](C(=O)N[C@@H](C)C(=O)NCc3ccc(N)nc3C)C2)c1 [compound 1331, Dihydrochloride] | System = mMASP-2 (Mus musculus (Mouse), UniProt Q91WP0) | pKi = ____ > 6.30

Request - read-out pKi | tested on mMASP-2 (Mus musculus (Mouse), UniProt Q91WP0) | molecule C[C@H](NC(=O)[C@@H](CCc1ccccc1)NCCc1cccc(OC(F)(F)F)c1)C(=O)NCc1ccc(C(=N)N)cc1 [compound 1352, Di-trifluoroacetate salt] > 6.30

Lookup: pKi / mMASP-2 (Mus musculus (Mouse), UniProt Q91WP0) / Cc1nc(N)ccc1CNC(=O)[C@H](C)NC(=O)[C@H]1C[C@H](Cc2ccc(OC(F)(F)F)c(Cl)c2)CN1 [compound 1455, Di-trifluoroacetate salt] > 6.30

Short answer please: pKi, mMASP-2 (Mus musculus (Mouse), UniProt Q91WP0), entry Cc1nc(N)ccc1CNC(=O)[C@H](C)NC(=O)[C@H]1CN(Cc2ccccc2)CCN1 [compound 1347, Dihydrochloride] > 6.30

Give pKi (mMASP-2 (Mus musculus (Mouse), UniProt Q91WP0)) of the following molecule: CC[C@H](NC(=O)[C@H]1C[C@H](c2ccccc2)CN1)C(=O)NCc1ccc(C(=N)N)cc1 [compound 1290] > 6.30

API: value(readout= pKi, system= mMASP-2 (Mus musculus (Mouse), UniProt Q91WP0), query= Cc1cccc(CC[C@@H](N)C(=O)N[C@@H](C)C(=O)NCc2ccc(C(=N)N)cc2)c1 [compound 1046] ) > 6.30

State its pKi on mMASP-2 (Mus musculus (Mouse), UniProt Q91WP0): Cc1cc(Cl)cc(CNC(=O)[C@H](C)NC(=O)[C@H]2C[C@H](c3ccccc3)CN2)c1O [compound 1298, Hydrochloride] 5.00 to 5.60

Record lookup: for mMASP-2 (Mus musculus (Mouse), UniProt Q91WP0), what pKi belongs to C[C@H](NC(=O)[C@@H](CCc1ccccc1)NCc1ccc(N2CCN(S(C)(=O)=O)CC2)cc1)C(=O)NCc1ccc(C(=N)N)cc1 [compound 1250] ? > 6.30

Request - read-out pKi | tested on mMASP-2 (Mus musculus (Mouse), UniProt Q91WP0) | molecule Cc1nc(N)ccc1CNC(=O)[C@H](C)NC(=O)[C@@H](CCc1ccccc1)NCCCc1cccc(O)c1 [compound 1319, Dihydrochloride salt] 4.60 to 5.00

Return pKi measured with mMASP-2 (Mus musculus (Mouse), UniProt Q91WP0) given this molecule: Cc1nc(N)ccc1CNC(=O)[C@H](C)NC(=O)[C@@H](CCc1ccccc1)NCc1ccc(C(=O)N2CCOCC2)cc1 [compound 1381, Di-trifluoroacetate salt] 4.60 to 5.00
